Test system: MDCK
Assay: Cytotoxicity against MDCK cells assessed as reduction in cell viability incubated for 72 hrs by MTT assay
Format: cell-based, Canis lupus familiaris
Settings: dog, mdck, 72 h
This listing pairs molecules with measured CC20.
PROPERTY LABEL: CC20

molecule=C#CC1(NC(=O)/C(C)=C/C(=O)OC[C@]23CC[C@@H](C(=C)C)[C@@H]2[C@H]2CC[C@@H]4[C@@]5(C)CC[C@H](O)C(C)(C)[C@@H]5CC[C@@]4(C)[C@]2(C)CC3)CCCCC1 target_desc=MDCK property_label=CC20 reported_result="54.47 µM"
molecule="C=C(C)[C@@H]1CC[C@]2(COC(=O)c3cccc(C(=O)N4CCSCC4)c3)CC[C@]3(C)[C@H](CC[C@@H]4[C@@]5(C)CC[C@H](O)C(C)(C)[C@@H]5CC[C@]43C)C12 (single isomer, unassigned)" target_desc=MDCK property_label=CC20 reported_result="117.79 µM"
molecule=C=C(C)[C@@H]1CC[C@]2(COC(=O)CSCC(=O)O)CC[C@]3(C)[C@H](CC[C@@H]4[C@@]5(C)CC[C@H](O)C(C)(C)[C@@H]5CC[C@]43C)[C@@H]12 target_desc=MDCK property_label=CC20 reported_result="21.08 µM"
molecule=C#CCNC(=O)CCCC(=O)OC[C@]12CC[C@@H](C(=C)C)[C@@H]1[C@H]1CC[C@@H]3[C@@]4(C)CC[C@H](O)C(C)(C)[C@@H]4CC[C@@]3(C)[C@]1(C)CC2 target_desc=MDCK property_label=CC20 reported_result="1.18 µM"
molecule=C=C(C)[C@@H]1CC[C@]2(COC(=O)CCCC(=O)N3CCOCC3)CC[C@]3(C)[C@H](CC[C@@H]4[C@@]5(C)CC[C@H](O)C(C)(C)[C@@H]5CC[C@]43C)[C@@H]12 target_desc=MDCK property_label=CC20 reported_result="18.85 µM"

====

Test: Cytotoxicity against MDCK cells assessed as reduction in cell viability incubated for 72 hrs by MTT assay
Type: cell-based, Canis lupus familiaris
Details: dog, MDCK cells
This listing pairs compounds with measured CC50 at 72 h.
PROPERTY LABEL: CC50 at 72 h (µM)

compound=C#CC1(NC(=O)/C(C)=C/C(=O)OC[C@]23CC[C@@H](C(=C)C)[C@@H]2[C@H]2CC[C@@H]4[C@@]5(C)CC[C@H](O)C(C)(C)[C@@H]5CC[C@@]4(C)[C@]2(C)CC3)CCCCC1 unit_info=µM reported_result=54.5
compound=C=C(C)[C@@H]1CC[C@]2(COC(=O)CSCC(=O)O)CC[C@]3(C)[C@H](CC[C@@H]4[C@@]5(C)CC[C@H](O)C(C)(C)[C@@H]5CC[C@]43C)[C@@H]12 unit_info=µM reported_result=42.2
compound="CCOC(=O)C1=C[C@@H](OC(CC)CC)[C@H](NC(C)=O)[C@@H](N)C1 [OSELTAMIVIR]" unit_info=µM reported_result=7870

====

Assay: Cytotoxicity against human A549 cells assessed as reduction in cell viability incubated for 48 hrs by MTT assay
Format: cell-based
Conditions: A549 cells
So basically, if CC50 at 48 h comes in under 100 µM it's Met, and if it's 100 µM or more it's Not met.

molecule=C=C(C)[C@@H]1CC[C@]2(COC(=O)/C=C(\C)C(=O)N3CCCCC3)CC[C@]3(C)[C@H](CC[C@@H]4[C@@]5(C)CC[C@H](O)C(C)(C)[C@@H]5CC[C@]43C)[C@@H]12 assigned_label=Met
molecule=C=C(C)[C@@H]1CC[C@]2(COC(=O)CCCC(=O)O)CC[C@]3(C)[C@H](CC[C@@H]4[C@@]5(C)CC[C@H](O)C(C)(C)[C@@H]5CC[C@]43C)[C@@H]12 assigned_label=Met
molecule=Nc1nc2c(ncn2COCCO)c(=O)[nH]1 assigned_label="Not met"
molecule=C#CCNC(=O)c1ccccc1C(=O)OC[C@]12CC[C@@H](C(=C)C)[C@@H]1[C@H]1CC[C@@H]3[C@@]4(C)CC[C@H](O)C(C)(C)[C@@H]4CC[C@@]3(C)[C@]1(C)CC2 assigned_label="Not met"
molecule=C=C(C)[C@@H]1CC[C@]2(COC(=O)CCCCCCCCCC(=O)N3CCOCC3)CC[C@]3(C)[C@H](CC[C@@H]4[C@@]5(C)CC[C@H](O)C(C)(C)[C@@H]5CC[C@]43C)[C@@H]12 assigned_label="Not met"
molecule=C=C(C)[C@@H]1CC[C@]2(COC(=O)c3ccccc3C(=O)N3CCOCC3)CC[C@]3(C)[C@H](CC[C@@H]4[C@@]5(C)CC[C@H](O)C(C)(C)[C@@H]5CC[C@]43C)[C@@H]12 assigned_label="Not met"
molecule=C=C(C)[C@@H]1CC[C@]2(COC(=O)/C=C(\C)C(=O)N3CCOCC3)CC[C@]3(C)[C@H](CC[C@@H]4[C@@]5(C)CC[C@H](O)C(C)(C)[C@@H]5CC[C@]43C)[C@@H]12 assigned_label="Not met"
molecule=C=C(C)[C@@H]1CC[C@]2(COC(=O)c3ccccc3C(=O)N3CCSCC3)CC[C@]3(C)[C@H](CC[C@@H]4[C@@]5(C)CC[C@H](O)C(C)(C)[C@@H]5CC[C@]43C)[C@@H]12 assigned_label="Not met"
molecule=C=C(C)[C@@H]1CC[C@]2(COC(=O)c3cccc(C(=O)N4CCCCC4)c3)CC[C@]3(C)[C@H](CC[C@@H]4[C@@]5(C)CC[C@H](O)C(C)(C)[C@@H]5CC[C@]43C)[C@@H]12 assigned_label="Not met"
molecule="C=C(C)[C@@H]1CC[C@]2(COC(=O)c3ccccc3C(=O)N3CCCCC3)CC[C@]3(C)[C@H](CC[C@H]4C3(C)CC[C@H]3C(C)(C)[C@@H](O)CC[C@@]34C)[C@@H]12 (single isomer, unassigned)" assigned_label=Met

====

Tested on: Human adenovirus 5
Assay: Antiviral activity against Human adenovirus 5 Adenoid 75 infected in A549 cells assessed as reduction in virus titer preincubated for 24 hrs followed by viral infection and measured after 72 hrs by microscopic analysis
Type: functional, organism-based
Activity calls are given as the source filed them. The calls are words filed in the database; no cut-off is given here.
PROPERTY LABEL: Activity

compound=C=C(C)[C@@H]1CC[C@]2(COC(=O)/C=C/C(=O)O)CC[C@]3(C)[C@H](CC[C@@H]4[C@@]5(C)CC[C@H](O)C(C)(C)[C@@H]5CC[C@]43C)[C@@H]12 property_label=Activity reported_result=inactive
compound=C=C(C)[C@@H]1CC[C@]2(COC(=O)c3cccc(C(=O)O)c3)CC[C@]3(C)[C@H](CC[C@@H]4[C@@]5(C)CC[C@H](O)C(C)(C)[C@@H]5CC[C@]43C)[C@@H]12 property_label=Activity reported_result=inactive
compound=C#CCNC(=O)/C(C)=C/C(=O)OC[C@]12CC[C@@H](C(=C)C)[C@@H]1[C@H]1CC[C@@H]3[C@@]4(C)CC[C@H](O)C(C)(C)[C@@H]4CC[C@@]3(C)[C@]1(C)CC2 property_label=Activity reported_result=inactive
compound=C#CCNC(=O)c1ccccc1C(=O)OC[C@]12CC[C@@H](C(=C)C)[C@@H]1[C@H]1CC[C@@H]3[C@@]4(C)CC[C@H](O)C(C)(C)[C@@H]4CC[C@@]3(C)[C@]1(C)CC2 property_label=Activity reported_result=inactive
compound="C#CC1(NC(=O)CCCC(=O)OC[C@]23CCC(C(=C)C)[C@@H]2[C@H]2CC[C@@H]4[C@@]5(C)CC[C@H](O)C(C)(C)[C@@H]5CC[C@@]4(C)[C@]2(C)CC3)CCCCC1 (single isomer, unassigned)" property_label=Activity reported_result=inactive
compound=C#CCNC(=O)CCCC(=O)OC[C@]12CC[C@@H](C(=C)C)[C@@H]1[C@H]1CC[C@@H]3[C@@]4(C)CC[C@H](O)C(C)(C)[C@@H]4CC[C@@]3(C)[C@]1(C)CC2 property_label=Activity reported_result=inactive
compound=C=C(C)[C@@H]1CC[C@]2(COC(=O)CCC(=O)N3CCOCC3)CC[C@]3(C)[C@H](CC[C@@H]4[C@@]5(C)CC[C@H](O)C(C)(C)[C@@H]5CC[C@]43C)[C@@H]12 property_label=Activity reported_result=inactive
compound="C#CCNC(=O)c1cccc(C(=O)OC[C@]23CC[C@@H](C(=C)C)[C@@H]2[C@H]2CC[C@@H]4C5(C)CC[C@H](O)C(C)(C)[C@@H]5CC[C@@]4(C)[C@]2(C)CC3)c1 (single isomer, unassigned)" property_label=Activity reported_result=inactive
compound="C#CC1(NC(=O)CCCCCCCCCC(=O)OC[C@]23CC[C@@H](C(=C)C)[C@@H]2[C@H]2CCC4[C@@]5(C)CC[C@H](O)C(C)(C)[C@@H]5CC[C@@]4(C)[C@]2(C)CC3)CCCCC1 (single isomer, unassigned)" property_label=Activity reported_result=inactive

Reference source: ChEMBL document CHEMBL4831514
